Biological target: human adenosine A2A receptor (Homo sapiens, UniProt P29274)
Construct: expressed in transfected cells; host or cells: CHO cells, Semliki Forest virus expression system; membrane preparation
Sequence (P29274 whole entry): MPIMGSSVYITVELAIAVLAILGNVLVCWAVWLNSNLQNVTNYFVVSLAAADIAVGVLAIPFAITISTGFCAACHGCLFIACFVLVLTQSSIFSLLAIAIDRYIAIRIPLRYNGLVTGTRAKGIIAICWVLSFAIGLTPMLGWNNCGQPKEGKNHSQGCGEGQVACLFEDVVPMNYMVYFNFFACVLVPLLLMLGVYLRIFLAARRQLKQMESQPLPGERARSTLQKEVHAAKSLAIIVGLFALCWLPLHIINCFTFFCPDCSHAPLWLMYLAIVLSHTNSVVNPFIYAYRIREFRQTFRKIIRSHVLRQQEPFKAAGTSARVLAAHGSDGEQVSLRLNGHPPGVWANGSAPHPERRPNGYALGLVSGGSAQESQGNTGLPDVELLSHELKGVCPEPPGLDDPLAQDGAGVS
Experiment: Human adenosine A2A receptor [3H]-SCH-58261 binding assay
Conditions: affinity to human adenosine A2A receptor; read-out: Ki HA2A
measurement type: Ki (nM)

Check out these entries, answers already filled in.
molecule="COc1ccc(CNC(=O)c2cc(N)n3nc(-c4nccs4)nc3c2)cc1OC [Example 208]" observed=316
molecule="Nc1cc(C(=O)NC2CCCCC2)cc2nc(-c3ccc(Cl)o3)nn12 [Example 234]" observed=69.5
molecule="Nc1cc(C(=O)N2CCc3ccccc3C2)cc2nc(-c3ccccn3)nn12 [Example 30]" observed=212
molecule="Nc1cc(C(=O)NCc2ccccc2)cc2nc(-c3ccccn3)nn12 [Example 46]" observed=61.1
molecule="COc1ccccc1CNC(=O)c1cc(N)n2nc(-c3cccnc3)nc2c1 [Example 87]" observed=240
molecule="CCN(C(=O)c1cc(N)n2nc(-c3ccc(Cl)o3)nc2c1)C1CCCCC1 [Example 243]" observed=3.3
molecule="NC(=O)C1CCN(C(=O)c2cc(N)n3nc(-c4ccc(Br)o4)nc3c2)CC1 [Example 300]" observed=74.7
molecule="COc1ccccc1CNC(=O)c1cc(N)n2nc(-c3ccccc3)nc2c1 [Example 220]" observed=29.2

A: COc1ccc(-c2nc3cc(C(=O)N4CCCC4)cc(N)n3n2)s1 [Example 69]
B: CC(NC(=O)c1cc(N)n2nc(-c3nccs3)nc2c1)c1ccccc1 (centres unmarked) [Example 126]
Between A and B , whose recorded Ki is greater? Field: selected label. Fill in the label of the entry you choose.
A

----------
Biological target: HA1 adenosine receptor (Homo sapiens, UniProt P30542)
Sequence (P30542 whole entry): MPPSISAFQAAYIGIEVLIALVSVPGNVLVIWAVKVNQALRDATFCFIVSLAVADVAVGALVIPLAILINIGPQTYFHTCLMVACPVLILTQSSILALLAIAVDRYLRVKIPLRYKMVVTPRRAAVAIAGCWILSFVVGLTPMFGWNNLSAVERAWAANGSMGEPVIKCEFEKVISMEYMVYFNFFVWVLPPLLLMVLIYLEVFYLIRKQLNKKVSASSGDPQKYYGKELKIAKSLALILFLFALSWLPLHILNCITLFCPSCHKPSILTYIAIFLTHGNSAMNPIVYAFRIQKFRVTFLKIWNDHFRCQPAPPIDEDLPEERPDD
Experiment: Human adenosine A1 receptor affinity (Ki hA1)
Type: binding
Conditions: affinity to human adenosine A1 receptor
measurement type: Ki (nM)

Example results:
molecule="Nc1cc(C(=O)NC2CCc3ccccc32)cc2nc(-c3nccs3)nn12 (stereo not shown)" measurement_type=Ki readout_unit=nM observed=255
molecule=Cc1ccc(-c2nc3cc(C(=O)NC4CCCCC4)cc(N)n3n2)o1 measurement_type=Ki readout_unit=nM observed=1270
molecule=Nc1cc(C(=O)NCc2ccccc2Cl)cc2nc(-c3cccs3)nn12 measurement_type=Ki readout_unit=nM observed=125
molecule=CCCN(CC1CC1)C(=O)c1cc(N)n2nc(-c3nccs3)nc2c1 measurement_type=Ki readout_unit=nM observed=1240
molecule=CCCN(C)C(=O)c1cc(N)n2nc(-c3ccc(Br)o3)nc2c1 measurement_type=Ki readout_unit=nM observed=275
molecule=COc1ccc(-c2nc3cc(C(=O)NCc4ccccc4Cl)cc(N)n3n2)s1 measurement_type=Ki readout_unit=nM observed=86.3
molecule=Nc1cc(C(=O)NCc2ccccc2Br)cc2nc(-c3ccco3)nn12 measurement_type=Ki readout_unit=nM observed=64.2
molecule="CC1CCCC(C)N1C(=O)c1cc(N)n2nc(-c3nccs3)nc2c1 (stereo not shown)" measurement_type=Ki readout_unit=nM observed=614
molecule=CCCCNC(=O)c1cc(N)n2nc(-c3ccc(C)s3)nc2c1 measurement_type=Ki readout_unit=nM observed=74.8
molecule=CCNC(=O)c1cc(N)n2nc(-c3nccs3)nc2c1 measurement_type=Ki readout_unit=nM observed=1240

A: CCN1CCN(C(=O)c2cc(N)n3nc(-c4ccc(Br)o4)nc3c2)CC1
B: CC1CCCN1C(=O)c1cc(N)n2nc(-c3nccs3)nc2c1 (stereo not shown)
C: Nc1cc(C(=O)NCc2ccccc2)cc2nc(-c3cc(Br)co3)nn12
Arrange items by their Ki values in increasing order. Reply with the item labels sorted in the order that was asked for.
C, A, B
(C: 24.7 nM, A: 1600 nM, B: 2970 nM)

----------
Target: human adenosine A2A receptor (Homo sapiens, UniProt P29274)
Construct: expressed in transfected cells; host or cells: CHO cells, Semliki Forest virus expression system; membrane preparation
Test: Human adenosine A2A receptor [3H]-SCH-58261 binding assay
Settings: affinity to human adenosine A2A receptor; read-out: Ki HA2A
pKi: −log10 of the molar value.
measurement type: pKi

Example cases with answers are listed next.
compound="C=CCN(CC=C)C(=O)c1cc(N)n2nc(-c3ccc(Br)o3)nc2c1 [Example 274]" study_system="human adenosine A2A receptor (Homo sapiens, UniProt P29274)" observed=8.55
compound="Nc1cc(C(=O)N2CCSC2)cc2nc(-c3nccs3)nn12 [Example 289]" study_system="human adenosine A2A receptor (Homo sapiens, UniProt P29274)" observed=7.26

P: CCN(CC)C(=O)c1cc(N)n2nc(-c3cccs3)nc2c1 [Example 127]
Q: Nc1cc(C(=O)N2CC=CCC2)cc2nc(-c3ccc(Br)o3)nn12 [Example 294]
R: Nc1cc(C(=O)NC2CCCCC2)cc2nc(-c3ccccn3)nn12 [Example 48]
S: CN(C)C(=O)c1cc(N)n2nc(-c3ccc(Br)o3)nc2c1 [Example 293]
Hello, I need these entries ordered by pKi, highest reading first. Thanks! Put the labels in the requested order and list them out.
Q, S, R, P

I: Nc1cc(C(=O)N2CC=CCC2)cc2nc(-c3nccs3)nn12 [Example 315]
II: CCN(Cc1ccccc1)C(=O)c1cc(N)n2nc(-c3nccs3)nc2c1 [Example 323]
Between the two listed entries I and II , which has its pKi at the higher number? Label of pick, please.
II

----------
Target: human adenosine A2A receptor (Homo sapiens, UniProt P29274)
Construct: expressed in transfected cells; host or cells: CHO cells, Semliki Forest virus expression system; membrane preparation
Assay: Human adenosine A2A receptor [3H]-SCH-58261 binding assay
Settings: affinity to human adenosine A2A receptor; read-out: Ki HA2A
measurement type: Ki (nM)

The following molecules have reported results that may help.
molecule="Cc1ccc(-c2nc3cc(C(=O)NC(C)c4ccccc4)cc(N)n3n2)s1 (centres unmarked)" observed=174
molecule=Nc1cc(C(=O)N2CCCCCC2)cc2nc(-c3nccs3)nn12 observed=34.5
molecule=COCCN(CCOC)C(=O)c1cc(N)n2nc(-c3nccs3)nc2c1 observed=319

1: COCCN(CCOC)C(=O)c1cc(N)n2nc(-c3ccc(Cl)o3)nc2c1
2: CN(CCc1ccccn1)C(=O)c1cc(N)n2nc(-c3nccs3)nc2c1
Returns the identifier with the smallest measured Ki among 1 and 2 . Could you answer with the label of the item you picked?
1
(1: 13.4 nM, 2: 295 nM)

----------
Biological target: human adenosine A2A receptor (Homo sapiens, UniProt P29274)
Construct: expressed in transfected cells; host or cells: CHO cells, Semliki Forest virus expression system; membrane preparation
Assay: Human adenosine A2A receptor [3H]-SCH-58261 binding assay
Conditions: calculated ratio of the affinity to the HA1 receptor to the HA2a receptor
measurement type: selectivity (A1/A2a)

Consider the reported selectivity (A1/A2a) for these compounds:
compound=Nc1cc(C(=O)N2CCCCC2)cc2nc(-c3ccc(Cl)o3)nn12 study_system="human adenosine A2A receptor (Homo sapiens, UniProt P29274)" observed=35.2
compound="Nc1cc(C(=O)NC2CCc3ccccc32)cc2nc(-c3nccs3)nn12 (centres unmarked)" study_system="human adenosine A2A receptor (Homo sapiens, UniProt P29274)" observed=10.5
compound=NC(=O)C1CCN(C(=O)c2cc(N)n3nc(-c4ccc(Br)o4)nc3c2)CC1 study_system="human adenosine A2A receptor (Homo sapiens, UniProt P29274)" observed=5.2

a: CC1CCN(C(=O)c2cc(N)n3nc(-c4nccs4)nc3c2)CC1
b: CCN(C(=O)c1cc(N)n2nc(-c3ccccn3)nc2c1)C1CCCCC1
c: C#CCN(C)C(=O)c1cc(N)n2nc(-c3ccc(Br)o3)nc2c1
Kindly order the items shown according to selectivity (A1/A2a), from the highest value down. Response format: the labels, sorted as the prompt asks.
c, a, b
(c: 79.4, a: 43.1, b: 22.7)

A: Nc1cc(C(=O)N2CCCCC2)cc2nc(-c3nccs3)nn12
B: CCCCNC(=O)c1cc(N)n2nc(-c3ccoc3)nc2c1
C: Nc1cc(C(=O)NC2CCCCC2)cc2nc(-c3ccccn3)nn12
D: Nc1cc(C(=O)NCc2ccc(F)cc2)cc2nc(-c3ccccn3)nn12
Rank by selectivity (A1/A2a) (largest to smallest). In your reply, arrange the labels in the requested order.
A, B, C, D

1: C=CCN(C(=O)c1cc(N)n2nc(-c3ccc(Br)o3)nc2c1)C1CCCC1
2: CCN(C(=O)c1cc(N)n2nc(-c3ccc(Cl)o3)nc2c1)C(C)C
3: CCN(CC)C(=O)c1cc(N)n2nc(-c3cccs3)nc2c1
Reorder the items by selectivity (A1/A2a), least to greatest. Give the labels in the order requested.
3, 2, 1

----------
Target: human adenosine A2A receptor (Homo sapiens, UniProt P29274)
Construct: expressed in transfected cells; host or cells: CHO cells, Semliki Forest virus expression system; membrane preparation
Assay: Human adenosine A2A receptor [3H]-SCH-58261 binding assay
Conditions: calculated ratio of the affinity to the HA1 receptor to the HA2a receptor
measurement type: selectivity (A1/A2a)

Worked set:
compound="Cn1cccc1-c1nc2cc(C(=O)NCc3ccccc3Br)cc(N)n2n1 [Example 182]" observed=4.9
compound="CCCCNC(=O)c1cc(N)n2nc(-c3cccs3)nc2c1 [Example 161]" observed=5.7
compound="CN(CCc1ccccn1)C(=O)c1cc(N)n2nc(-c3ccc(Br)o3)nc2c1 [Example 308]" observed=47.2
compound="CN(CCc1ccccc1)C(=O)c1cc(N)n2nc(-c3nccs3)nc2c1 [Example 322]" observed=9.6
compound="Nc1cc(C(=O)N(CC(F)(F)F)CC(F)(F)F)cc2nc(-c3ccc(Br)o3)nn12 [Example 311]" observed=22.3

1: CN(C(=O)c1cc(N)n2nc(-c3ccccc3)nc2c1)C1CCCCC1 [Example 148]
2: CCCCNC(=O)c1cc(N)n2nc(-c3ccc(C)s3)nc2c1 [Example 193]
Lower selectivity (A1/A2a): 1 or 2 ? In your reply, give the label of the chosen option.
2
(2: 1.8, 1: 8.1)

1: Nc1cc(C(=O)NCc2ccccc2Cl)cc2nc(-c3ccccc3O)nn12 [Example 159]
2: COc1ccccc1CNC(=O)c1cc(N)n2nc(-c3sccc3C)nc2c1 [Example 192]
Lower value for measured selectivity (A1/A2a)? Options: 1 , 2 Mark your selection by writing its label.
2

a: Nc1cc(C(=O)NC2CCCCC2)cc2nc(-c3ccc(Br)o3)nn12 [Example 165]
b: CN(C(=O)c1cc(N)n2nc(-c3ccc(Cl)o3)nc2c1)C1CCCCC1 [Example 242]
c: CC(C)N(Cc1ccccc1)C(=O)c1cc(N)n2nc(-c3ccc(Br)o3)nc2c1 [Example 26]
d: Cc1ccc(-c2nc3cc(C(=O)NCc4ccccc4)cc(N)n3n2)s1 [Example 197]
e: Nc1cc(C(=O)NCc2ccccc2Cl)cc2nc(-c3cccs3)nn12 [Example 163]
Order the entries by their reported selectivity (A1/A2a), beginning at the minimum. Dear reader, please state the labels in the requested order.
d, e, a, c, b
(d: 0.5, e: 4.0, a: 8.7, c: 13.0, b: 19.0)

A: CCNC(=O)c1cc(N)n2nc(-c3ccc(Br)o3)nc2c1 [Example 335]
B: Nc1cc(C(=O)NCc2ccccc2Br)cc2nc(-c3ccccn3)nn12 [Example 38]
C: CC(C)CN(CC(C)C)C(=O)c1cc(N)n2nc(-c3ccc(Br)o3)nc2c1 [Example 346]
D: Cc1ccc(-c2nc3cc(C(=O)N(Cc4ccccc4)C(C)C)cc(N)n3n2)o1 [Example 141]
E: Cn1cccc1-c1nc2cc(C(=O)N3CCCC3)cc(N)n2n1 [Example 134]
Rank entries according to their selectivity (A1/A2a), from the largest number down. Answer format: list of labels, ordered as asked.
C, D, A, E, B
(C: 42.7, D: 20.8, A: 14.1, E: 9.3, B: 4.6)

A: COc1ccc(-c2nc3cc(C(=O)NC4CCCCC4)cc(N)n3n2)s1 [Example 64]
B: C=CCN(C)C(=O)c1cc(N)n2nc(-c3ccc(Cl)o3)nc2c1 [Example 251]
Choose between A and B : whose measured selectivity (A1/A2a) value is numerically larger? Respond using the label that marks the chosen record.
B
(B: 24.5, A: 1.0)

P: C=CCN(C)C(=O)c1cc(N)n2nc(-c3ccc(Br)o3)nc2c1 [Example 267]
Q: Nc1cc(C(=O)N2CCC2)cc2nc(-c3ccc(Cl)o3)nn12 [Example 249]
R: Cc1ccsc1-c1nc2cc(C(=O)NC(C)c3ccccc3)cc(N)n2n1 (stereo not drawn) [Example 190]
Order each entry by recorded selectivity (A1/A2a), climbing from the minimum. Rank them, then answer with their labels in that order.
R, Q, P
(R: 0.1, Q: 3.0, P: 42.0)

a: Nc1cc(C(=O)NCc2ccccc2Cl)cc2nc(-c3cc(Br)co3)nn12 [Example 174]
b: Cc1ccc(-c2nc3cc(C(=O)N(Cc4ccccc4)C(C)C)cc(N)n3n2)s1 [Example 117]
For the two items a and b , which reports the higher selectivity (A1/A2a) value? API: response body contains the label of the selected item.
b
(b: 19.2, a: 1.6)

P: CN(C)CCN(C)C(=O)c1cc(N)n2nc(-c3ccc(Br)o3)nc2c1 [Example 279]
Q: CC1CCCCN1C(=O)c1cc(N)n2nc(-c3nccs3)nc2c1 (stereo not drawn) [Example 329]
R: Nc1cc(C(=O)NCc2ccc(F)cc2)cc2nc(-c3ccoc3)nn12 [Example 227]
Please list these in order of increasing selectivity (A1/A2a). Thank you! Rank them, then answer with their labels in that order.
R, P, Q

The reported numbers originate from patent US6506772B1.
